System: Saccharomyces cerevisiae
measurement_protocol: protein stability index of tFT-peptide fusion (C-terminal peptide) (PSI (0-1 scale)); higher = more stable (slower turnover)
particulars: genetic background: cdc34-1; temperature: 37 C
Please use t whenever protein stability index is not below 0.2, and f whenever it is.

Task: Textbook exercise: given the entry `VLVLLVCVAALV` , state whether its protein stability index is greater than or equal to 0.2.
Output: f

Task: Similarly, `LFFLPPCYWFLL` ?
Output: t

Task: Similarly, `KLVFLLCLNKVF` ?
Output: t

* * *

A collection of sequences and their measured protein stability index
Test system: Saccharomyces cerevisiae;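 note: PSI is a weighted mean of sequencing reads over stability bins, variants kept only with over 10 reads, mCherry proximal and sfGFP distal, peptide attached via GGGS linker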
measurement_protocol: protein stability index of tFT-peptide fusion (C-terminal peptide) (PSI (0-1 scale)); higher = more stable (slower turnover)
particulars: genetic background: das1 deletion; temperature: 37 C
Respond numerically, and do not add a unit to the figure.

seq_text	measured_number
WSLRFRRMMLRC	0.534
LDHGRVVWVVVS	0.493
RVDVSVLWNRRS	0.744
LPPYPPPVPILI	0.519

Task: I'd like to know its protein stability index. The sequence in question is `FLPPVHRCFSIF`
Output: 0.745

Task: Similarly, `LRALGPRIYRIS` ?
Output: 0.747

Task: Similarly, `CILVSVDVIVFF` ?
Output: 0.207

Task: Similarly, `FFVSFFFFLWLV` ?
Output: 0.261
